# study system: human thyroid receptor alpha ligand-binding domain (LBD) (Homo sapiens, UniProt P10827)
# Construct: purchased Invitrogen
# Sequence (P10827 163-410 isoform P10827-2 limits assumed, other chains not shown): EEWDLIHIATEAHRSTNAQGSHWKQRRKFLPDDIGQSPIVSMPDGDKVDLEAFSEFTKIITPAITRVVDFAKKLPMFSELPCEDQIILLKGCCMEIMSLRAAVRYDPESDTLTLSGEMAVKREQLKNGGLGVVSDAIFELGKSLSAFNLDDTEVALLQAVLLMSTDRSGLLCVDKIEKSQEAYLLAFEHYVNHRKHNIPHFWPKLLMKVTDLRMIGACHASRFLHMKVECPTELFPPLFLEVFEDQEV
# assay summary: TR-FRET thyroid receptor alpha coactivator assay (THR biochemical assay, Assay 1)
# condition notes: Table 5, THRα, read-out: Activity category Assay 1 THRα (Emax)
Consider the following molecules; for each one, report its Emax.

Requested field: Emax. Item: CCCCCc1n[nH]c2ccc(Cc3c(C)cc(-n4nc(C#N)c(=O)[nH]c4=O)cc3C)cc12 [Compound 32]
50 to 75%

# query: Emax of entry Nc1nn(-c2cc(Cl)c(Oc3n[nH]c(=O)cc3-c3ccc4nnccc4c3)c(Cl)c2)c(=O)[nH]c1=O [Compound 109]
< 50%

Query (molecule): CC(c1ccccc1)c1c[nH]c2ccc(Oc3c(Cl)cc(-n4nc(C#N)c(=O)[nH]c4=O)cc3Cl)cc12 (centres unmarked) [Compound 6] ; field requested: Emax
< 50%

Look at this molecule and give its reported Emax. Nc1nn(-c2cc(Cl)c(Oc3cc(-c4ccc5ncccc5c4)c(=O)[nH]n3)c(Cl)c2)c(=O)[nH]c1=O [Compound 128]
< 50%

Which Emax value is on record for Cc1cc(-n2nc(C#N)c(=O)[nH]c2=O)cc(C)c1Cc1ccc2[nH]cc(C(C)C)c2n1 [Compound 31] ?
< 50%

# input molecule: Nc1nn(-c2cc(Cl)c(Oc3cc(-c4ccc5ccnnc5c4)c(=O)[nH]n3)c(Cl)c2)c(=O)[nH]c1=O [Compound 110] ; wanted: its Emax
< 50%

Quick one: Emax for Cc1ccc(-c2cc(Oc3c(Cl)cc(-n4nc(N)c(=O)[nH]c4=O)cc3Cl)n[nH]c2=O)cc1C [Compound 112] ?
< 50%

Given CC(c1c[nH]c2ccc(Oc3c(Cl)cc(-n4nc(C#N)c(=O)[nH]c4=O)cc3Cl)cc12)C(F)(F)F (centres unmarked) [Compound 45] , state its recorded Emax.
< 50%

Which Emax is listed for Nc1nn(-c2cc(Cl)c(Oc3n[nH]c(=O)cc3-c3ccn4nccc4c3)c(Cl)c2)c(=O)[nH]c1=O [Compound 125] ?
< 50%

Returns the measured Emax for the input molecule. Input: CC(C)Nc1n[nH]c2ccc(Oc3c(Cl)cc(-n4nc(C#N)c(=O)[nH]c4=O)cc3Cl)cc12 [Compound 145]
50 to 75%

Emax lookup needed for CC(C)c1n[nH]c2nnc(Oc3c(Cl)cc(-n4nc(C#N)c(=O)[nH]c4=O)cc3Cl)cc12 [Compound 75A] , thanks.
< 50%

Which measured Emax value corresponds to Cc1c(-n2nc(N)c(=O)[nH]c2=O)cc(Cl)c(Oc2cc(C(C)C)c(=O)[nH]n2)c1Cl [Compound 35] ?
50 to 75%

Entry under review: Nc1nn(-c2cc(Cl)c(Oc3n[nH]c(=O)cc3-c3ccccc3)c(Cl)c2)c(=O)[nH]c1=O [Compound 63-A] . Reported Emax?
< 50%

Fill in the blank: the reported Emax of CC(C)c1cc(Oc2c(Cl)cc(-n3nc(CS(C)(=O)=O)c(=O)[nH]c3=O)cc2Cl)n[nH]c1=O [Compound 34] is ____.
< 50%

Quick check: Emax of Cc1cc(-n2nc(C#N)c(=O)[nH]c2=O)cc(C)c1Cc1cnc2[nH]cc(C(C)C)c2n1 [Compound 66] ?
< 50%

Using the record for CC(C)c1cc(Oc2c(Cl)cc(-c3nn(C)c(=O)[nH]c3=O)cc2Cl)n[nH]c1=O [Compound 16] , report its Emax.
< 50%

For Cc1cc(-n2nc(C#N)c(=O)[nH]c2=O)cc(C)c1Oc1ccc2[nH]cc(C(C)C)c2c1 [Compound 2] , what is its reported Emax?
< 50%

Dear colleague, I am looking for the recorded Emax of the following molecule: Cc1cc(-n2nc(C#N)c(=O)[nH]c2=O)cc(C)c1Cc1ccc2c(c1)C1(CCC1)C(=O)N2 [Compound 153]
< 50%

Record request: Emax value, item CC(C)[C@H](C)c1cc(Oc2c(Cl)cc(-n3nc(N)c(=O)[nH]c3=O)cc2Cl)n[nH]c1=O [Compound 170]
< 50%

Reported Emax, molecule CSCc1nn(-c2cc(Cl)c(Oc3cc(C(C)C)c(=O)[nH]n3)c(Cl)c2)c(=O)[nH]c1=O [Compound 33] : ____
< 50%

Looking for the measured Emax of N#Cc1nn(-c2cc(Cl)c(Oc3ccc4[nH]cc(C(=O)N5CCc6ccccc6C5)c4c3)c(Cl)c2)c(=O)[nH]c1=O [Compound 22] , can you help?
< 50%

What value of Emax has been reported for the following molecule? Nc1nn(-c2cc(Cl)c(Oc3cc(C4CCc5ccccc54)c(=O)[nH]n3)c(Cl)c2)c(=O)[nH]c1=O (centres unmarked) [Compound 156]
< 50%

I'd like to know its Emax. The molecule in question is Nc1nn(-c2cc(Cl)c(Oc3cc(-c4cccc(OC(F)F)c4)c(=O)[nH]n3)c(Cl)c2)c(=O)[nH]c1=O [Compound 118]
< 50%

I am curious: what Emax value has been reported for O=c1cc(-c2ccc3ccccc3c2)c(Oc2c(Cl)cc(-n3ncc(=O)[nH]c3=O)cc2Cl)n[nH]1 [Compound 92-A] ?
50 to 75%

Please give the measured Emax for this molecule: Nc1nn(-c2cc(Cl)c(Oc3cc(-c4ccn5cncc5c4)c(=O)[nH]n3)c(Cl)c2)c(=O)[nH]c1=O [Compound 126]
< 50%

Tell me the measured Emax of Cc1cncc(-c2cc(Oc3c(Cl)cc(-n4ncc(=O)[nH]c4=O)cc3Cl)n[nH]c2=O)c1 [Compound 137] , please.
< 50%

GET /values?readout=Emax&item= Nc1nn(-c2cc(Cl)c(Oc3cc(Cc4ccccc4)c(=O)[nH]n3)c(Cl)c2)c(=O)[nH]c1=O [Compound 65]
< 50%

What does the record list as Emax for Cc1cc(-n2nc(N)c(=O)[nH]c2=O)cc(C)c1Cc1ccc(O)c(-c2ccccc2)n1 [Compound 43] ?
> 75%

Emax for Cc1cc(-n2nc(N)c(=O)[nH]c2=O)cc(C)c1Cc1cc2c(C(C)C)c[nH]c2cn1 [Compound 157] ?
50 to 75%

====

# study system: THR beta (Homo sapiens, UniProt P10828)
# Construct: expressed in transfected cells; host or cells: HEK293T (ATCC CRL-3216)
# Sequence (P10828 whole entry): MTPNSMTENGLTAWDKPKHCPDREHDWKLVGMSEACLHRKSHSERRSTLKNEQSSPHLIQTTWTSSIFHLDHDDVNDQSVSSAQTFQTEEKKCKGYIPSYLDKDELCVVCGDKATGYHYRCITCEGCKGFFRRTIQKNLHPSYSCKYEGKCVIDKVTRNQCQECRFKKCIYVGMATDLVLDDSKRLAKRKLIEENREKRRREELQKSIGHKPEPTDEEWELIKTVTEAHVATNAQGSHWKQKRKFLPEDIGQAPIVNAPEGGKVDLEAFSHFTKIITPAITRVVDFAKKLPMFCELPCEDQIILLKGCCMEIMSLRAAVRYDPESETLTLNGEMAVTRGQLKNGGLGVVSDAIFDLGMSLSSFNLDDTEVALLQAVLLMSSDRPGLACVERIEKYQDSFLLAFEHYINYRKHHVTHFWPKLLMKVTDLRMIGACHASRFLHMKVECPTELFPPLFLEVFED
# Sequence (P19793 whole entry partner): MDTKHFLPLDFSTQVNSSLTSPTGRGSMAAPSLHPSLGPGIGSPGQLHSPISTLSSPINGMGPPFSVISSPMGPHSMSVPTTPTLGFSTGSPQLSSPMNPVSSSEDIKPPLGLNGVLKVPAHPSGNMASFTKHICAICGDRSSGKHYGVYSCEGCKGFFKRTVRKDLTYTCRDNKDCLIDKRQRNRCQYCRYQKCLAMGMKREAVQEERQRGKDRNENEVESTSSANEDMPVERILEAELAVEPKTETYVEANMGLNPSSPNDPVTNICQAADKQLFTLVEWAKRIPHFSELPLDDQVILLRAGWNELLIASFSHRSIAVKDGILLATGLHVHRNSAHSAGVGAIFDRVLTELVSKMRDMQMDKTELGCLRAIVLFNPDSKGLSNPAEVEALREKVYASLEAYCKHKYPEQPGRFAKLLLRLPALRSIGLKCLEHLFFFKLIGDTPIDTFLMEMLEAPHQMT
# assay summary: HEK293T THR beta/RXR luciferase reporter assay (Assay 2)
# Format: cell-based
# condition notes: THR-beta, HEK293T reporter assay; read-out: Activity category Assay 2 (EC50, THR-beta agonist)
# Description: HEK293T Reporter THRalpha/Beta/RXR Reporter Assay (Assay 2) The purpose of this assay is to evaluate the effect of compounds on the thyroid hormone nuclear receptor pathway in HEK293T cells. […] Transfected cells are stimulated with test compounds for 18-24 hours before activation of the thyroid hormone pathway is measured via a luciferase read-out. Procedure. […] Percent agonism is calculated using the following equation: 100× (sample-negative control)/(positive control-negative control).
value kind: EC50

Give recorded EC50 with THR beta (Homo sapiens, UniProt P10828) for the following molecule: CC(C)c1c[nH]c2nnc(Oc3c(Cl)cc(-n4nc(N)c(=O)[nH]c4=O)cc3Cl)cc12
250 to 1000 nM

Any idea what EC50 came out for C[C@H]1C[C@H](c2cc(Oc3c(Cl)cc(-n4nc(N)c(=O)[nH]c4=O)cc3Cl)n[nH]c2=O)C1 (single isomer, unassigned) on THR beta (Homo sapiens, UniProt P10828)?
50 to 250 nM

Write down the reported EC50 of Cc1c(-n2nc(N)c(=O)[nH]c2=O)cc(Cl)c(Oc2cc(C(C)C)c(=O)[nH]n2)c1Cl , test system: THR beta (Homo sapiens, UniProt P10828).
1000 to 10000 nM

Please state recorded EC50 (tested on THR beta (Homo sapiens, UniProt P10828)) of Nc1nn(-c2cc(Cl)c(Oc3cc(C45CCC(C4)C5)c(=O)[nH]n3)c(Cl)c2)c(=O)[nH]c1=O
50 to 250 nM

THR beta (Homo sapiens, UniProt P10828) / EC50 / Nc1nn(-c2cc(Cl)c(Oc3ccc4c(c3)C3(CCCC3)C(=O)N4)c(Cl)c2)c(=O)[nH]c1=O : value?
< 50 nM

Lab note: need EC50 for CC(C)Cc1c[nH]c2ccc(Oc3c(Cl)cc(-n4nc(C#N)c(=O)[nH]c4=O)cc3Cl)cc12 on THR beta (Homo sapiens, UniProt P10828), anyone have it?
250 to 1000 nM

Lab note: need EC50 with THR beta (Homo sapiens, UniProt P10828) for entry CCCCCc1n[nH]c2ccc(Cc3c(C)cc(-n4nc(C#N)c(=O)[nH]c4=O)cc3C)cc12 , please look it up.
50 to 250 nM

# value lookup — system THR beta (Homo sapiens, UniProt P10828), readout EC50, item Nc1nn(-c2cc(Cl)c(Oc3cc(C4(F)CCCC4)c(=O)[nH]n3)c(Cl)c2)c(=O)[nH]c1=O
250 to 1000 nM

Give EC50 (THR beta (Homo sapiens, UniProt P10828)) of the following molecule: Cc1cc(-n2nc(C#N)c(=O)[nH]c2=O)cc(C)c1Cc1ccc2[nH]cc(C(C)C)c2c1
50 to 250 nM

Checklist item: EC50 tested on THR beta (Homo sapiens, UniProt P10828), entry Nc1nn(-c2cc(Cl)c(Oc3cc(-c4ccc5ncccc5c4)c(=O)[nH]n3)c(Cl)c2)c(=O)[nH]c1=O , value?
> 10000 nM

Request: EC50, test system THR beta (Homo sapiens, UniProt P10828), entry CC(C)c1c[nH]c2ccc(Oc3c(Cl)cc(-n4nc(C#N)c(=O)[nH]c4=O)cc3Cl)nc12
1000 to 10000 nM

Missing value: EC50, THR beta (Homo sapiens, UniProt P10828), entry CC(c1cc(Oc2c(Cl)cc(-n3nc(N)c(=O)[nH]c3=O)cc2Cl)n[nH]c1=O)C1CC(F)(F)C1 (centres unmarked) [Compound 61] . Fill in?
50 to 250 nM

I'm curious: which EC50 was measured for CC(C)c1cc(=O)[nH]c2ccc(Oc3c(Cl)cc(-n4nc(N)c(=O)[nH]c4=O)cc3Cl)cc12 tested on THR beta (Homo sapiens, UniProt P10828)?
< 50 nM

Request body: readout EC50, system THR beta (Homo sapiens, UniProt P10828), query Cc1cccc(-c2cc(Oc3c(Cl)cc(-n4ncc(=O)[nH]c4=O)cc3Cl)n[nH]c2=O)c1 . Return the value.
< 50 nM

Record lookup: for THR beta (Homo sapiens, UniProt P10828), what EC50 belongs to Cc1cc(-n2nc(C#N)c(=O)[nH]c2=O)cc(C)c1Cc1cnc2[nH]cc(C(C)C)c2n1 ?
1000 to 10000 nM

Lab note: need EC50 for Nc1nn(-c2cc(Cl)c(Oc3cc(-c4cccc(Cl)c4)c(=O)[nH]n3)c(Cl)c2)c(=O)[nH]c1=O on THR beta (Homo sapiens, UniProt P10828), anyone have it?
< 50 nM

// lookup EC50 | system=THR beta (Homo sapiens, UniProt P10828) | key= Cc1cc(-n2nc(C#N)c(=O)[nH]c2=O)cc(C)c1Oc1ccc2[nH]cc(C(C)C)c2c1
50 to 250 nM

Given the entry Nc1nn(-c2cc(Cl)c(Oc3cc(C45CC(C4)C5)c(=O)[nH]n3)c(Cl)c2)c(=O)[nH]c1=O , what EC50 was observed with THR beta (Homo sapiens, UniProt P10828)?
50 to 250 nM

Request body: readout EC50, system THR beta (Homo sapiens, UniProt P10828), query Cc1cc(-n2nc(N)c(=O)[nH]c2=O)cc(C)c1Oc1cc(C(C)C)c(=O)[nH]n1 . Return the value.
250 to 1000 nM

# returns recorded EC50 (system: THR beta (Homo sapiens, UniProt P10828)) for Cc1cc(-n2nc(C#N)c(=O)[nH]c2=O)cc(C)c1Cc1ccc2[nH]c(=O)cc(C(C)C)c2c1
> 10000 nM

Recall the recorded EC50 for Nc1nn(-c2cc(Cl)c(Oc3cc(C4CC5(CCC5)C4)c(=O)[nH]n3)c(Cl)c2)c(=O)[nH]c1=O with THR beta (Homo sapiens, UniProt P10828) and state it.
50 to 250 nM

Reported EC50 for THR beta (Homo sapiens, UniProt P10828), given CC(C)c1cc(Oc2c(Cl)cc(-n3nc(N)c(=O)[nH]c3=O)cc2Br)n[nH]c1=O ?
< 50 nM

State its EC50 on THR beta (Homo sapiens, UniProt P10828): CCCc1c[nH]c2ccc(Oc3c(Cl)cc(-n4nc(C#N)c(=O)[nH]c4=O)cc3Cl)nc12
1000 to 10000 nM

Report EC50 for CC(C)(C)c1cc(Oc2c(Cl)cc(-n3nc(N)c(=O)[nH]c3=O)cc2Cl)n[nH]c1=O tested on THR beta (Homo sapiens, UniProt P10828).
50 to 250 nM

Missing value: EC50, THR beta (Homo sapiens, UniProt P10828), entry CC(C)c1c[nH]c2ccc(Oc3c(Cl)cc(-n4nc(C#N)c(=O)[nH]c4=O)cc3Cl)cc12 . Fill in?
50 to 250 nM

Find the measured EC50: item Cc1ccc(-c2cc(=O)[nH]nc2Oc2c(Cl)cc(-n3nc(N)c(=O)[nH]c3=O)cc2Cl)cc1C , target or system THR beta (Homo sapiens, UniProt P10828).
250 to 1000 nM

Lab request: please report EC50 under test system THR beta (Homo sapiens, UniProt P10828) for CC(c1cc(Oc2c(Cl)cc(-n3nc(N)c(=O)[nH]c3=O)cc2Cl)n[nH]c1=O)C1CC(F)(F)C1 (single isomer, unassigned) [Compound 61-B]
250 to 1000 nM

# query: EC50 | item Nc1nn(-c2cc(Cl)c(Oc3cc(-c4cccc(OC(F)F)c4)c(=O)[nH]n3)c(Cl)c2)c(=O)[nH]c1=O | system: THR beta (Homo sapiens, UniProt P10828)
< 50 nM

Request: EC50, test system THR beta (Homo sapiens, UniProt P10828), entry Nc1nn(-c2cc(Cl)c(Oc3cc(C4CCc5ccccc5C4)c(=O)[nH]n3)c(Cl)c2)c(=O)[nH]c1=O (centres unmarked)
50 to 250 nM
